As a worked illustration, we turn to Ki data collected for Tissue-type plasminogen activator (Homo sapiens).
Quick reminder: number only, in µM, skip the unit.

Query CNc1ccc(C#CC[C@H](NS(=O)(=O)c2ccc3c(c2)CCCC3)C(=O)N(C)C2CCCC2)cc1 yields Ki of 200

Next:
Query CCCc1ccc(S(=O)(=O)N[C@@H](CC#Cc2ccc(NC)cc2)C(=O)N(C)C2CCCC2)cc1 yields Ki of 190

###

As a worked illustration, we turn to Ki data collected for UniProt P00734.
Quick reminder: number only, in nM, skip the unit.

Below: 8 compounds and their reported Ki.
Case CNc1ccc(C#CC[C@H](NS(=O)(=O)c2ccc3ccccc3c2)C(=O)N(C)C2CCCC2)cc1 , UniProt P00734, Ki recorded as 19

Case CNc1ccc(C#CC[C@H](NS(=O)(=O)c2ccc3ccccc3c2)C(=O)N(C)C2CCCC2)cn1 , UniProt P00734, Ki recorded as 300

Case CNc1ccc(C#CC[C@H](NS(=O)(=O)c2ccc3c(c2)CCCC3)C(=O)N(C)C2CCCC2)cc1 , UniProt P00734, Ki recorded as 5

Case CN(C(=O)[C@H](CC#Cc1ccc(NN)cc1)NS(=O)(=O)c1ccc2ccccc2c1)C1CCCC1 , UniProt P00734, Ki recorded as 1500

Case CN(C(=O)[C@H](CC#Cc1cnc[nH]1)NS(=O)(=O)c1ccc2ccccc2c1)C1CCCC1 , UniProt P00734, Ki recorded as 3000

Case CNc1ccc(C#CC[C@H](NS(=O)(=O)c2ccc3cc(OC)ccc3c2)C(=O)N(C)C2CCCC2)cc1 , UniProt P00734, Ki recorded as 27

Case CCCc1ccc(S(=O)(=O)N[C@@H](CC#Cc2ccc(NC)cc2)C(=O)N(C)C2CCCC2)cc1 , UniProt P00734, Ki recorded as 8

Case CCNc1ccc(C#CC[C@H](NS(=O)(=O)c2ccc3ccccc3c2)C(=O)N(C)C2CCCC2)cc1 , UniProt P00734, Ki recorded as 49000

Next:
Case CN(C(=O)[C@H](CC#Cc1ccc(N)c(N)c1)NS(=O)(=O)c1ccc2ccccc2c1)C1CCCC1 , UniProt P00734, Ki recorded as 220

###

As a worked illustration, we turn to pKi data collected for Coagulation factor X (Homo sapiens, UniProt P00742).
Formally, pKi is defined as -log10 of the concentration c, with c in mol/L.

Below: 3 compounds and their reported pKi.
Query CCCc1ccc(S(=O)(=O)N[C@@H](CC#Cc2ccc(NC)cc2)C(=O)N(C)C2CCCC2)cc1 yields pKi of 5.18

Query CNc1ccc(C#CC[C@H](NS(=O)(=O)c2ccc3ccccc3c2)C(=O)N(C)C2CCCC2)cc1 yields pKi of 5.06

Query CNc1ccc(C#CC[C@H](NS(=O)(=O)c2ccc3cc(OC)ccc3c2)C(=O)N(C)C2CCCC2)cc1 yields pKi of 4.85

The record that follows has no pKi shown yet.
Query CNc1ccc(C#CC[C@H](NS(=O)(=O)c2ccc3c(c2)CCCC3)C(=O)N(C)C2CCCC2)cc1 yields pKi of 5.72

###

pKi: −log10 of the molar value.
As a worked illustration, we turn to pKi data collected for Serine protease 1 (Bos taurus).

Case CNc1ccc(C#CC[C@H](NS(=O)(=O)c2ccc3ccccc3c2)C(=O)N(C)C2CCCC2)cc1 , Serine protease 1 (Bos taurus), pKi recorded as 4.43

Next:
Case CNc1ccc(C#CC[C@H](NS(=O)(=O)c2ccc3c(c2)CCCC3)C(=O)N(C)C2CCCC2)cc1 , Serine protease 1 (Bos taurus), pKi recorded as < 4.52

Case CNc1ccc(C#CC[C@H](NS(=O)(=O)c2ccc3cc(OC)ccc3c2)C(=O)N(C)C2CCCC2)cc1 , Serine protease 1 (Bos taurus), pKi recorded as < 4.52

Case CCCc1ccc(S(=O)(=O)N[C@@H](CC#Cc2ccc(NC)cc2)C(=O)N(C)C2CCCC2)cc1 , Serine protease 1 (Bos taurus), pKi recorded as < 4.52

###

Assay: Tmax at a dose of 30 mg/kg in rat
Assay type: ADME, organism-based
Set-up: dose 30 mg/kg
Details: in vivo
Measured endpoint: Tmax (min)
Quick reminder: number only, in min, skip the unit.

Query CNc1ccc(C#CC[C@H](NS(=O)(=O)c2ccc3c(c2)CCCC3)C(=O)N(C)C2CCCC2)cc1 yields Tmax of 45

###

Assay: Cmax at a dose of […] mg/kg in rat
Assay type: ADME, organism-based
Conditions: in vivo, 30 mg/kg
Measured endpoint: Cmax (µM)
Quick reminder: number only, in µM, skip the unit.

Query CNc1ccc(C#CC[C@H](NS(=O)(=O)c2ccc3c(c2)CCCC3)C(=O)N(C)C2CCCC2)cc1 yields Cmax of 1.8

Sourced from ChEMBL document CHEMBL1132084
